Listed compounds paired with reported IC50
molecular target: MMP-13 catalytic domain (Homo sapiens); construct: catalytic domain (^104Tyr˜^267Gly); His-tag; enterokinase digestion-site; experiment: Assay for inhibitory activities on MMPs (fluorogenic peptide substrate): MMP-13; conditions: substrate MOCAc-Pro-Leu-Gly-Leu-A2Pr(DNP)-Ala-Arg-NH2

Worked examples follow.
> print(dat)
                               entry.smiles  recorded.endpoint   result
1  O=C(O)[C@@H](Cc1ccccc1)NS(=O)(=O)c1ccc(C#Cc2ccc3ccccc3c2)cc1               IC50  > 10 µM
2  O=C(O)[C@H](Cc1ccccc1)NS(=O)(=O)c1ccc(C#Cc2ccc3ccccc3c2)s1               IC50  > 10 µM

What IC50 value was documented for this compound, O=C(O)[C@@H](Cc1ccccc1)NS(=O)(=O)c1ccc(C#Cc2cccc3ccccc23)s1 ?
> 10 µM

====

molecular target: MMP-8 catalytic domain (Homo sapiens); construct: catalytic domain (^99Phe˜^262Gly); His-tag; enterokinase digestion-site; made in house; host or cells: Escherichia coli; assay: Assay for inhibitory activities on MMPs (fluorogenic peptide substrate): MMP-8; format: biochemical; details: substrate MOCAc-Pro-Leu-Gly-Leu-A2Pr(DNP)-Ala-Arg-NH2
Sequence (P22894 99-262): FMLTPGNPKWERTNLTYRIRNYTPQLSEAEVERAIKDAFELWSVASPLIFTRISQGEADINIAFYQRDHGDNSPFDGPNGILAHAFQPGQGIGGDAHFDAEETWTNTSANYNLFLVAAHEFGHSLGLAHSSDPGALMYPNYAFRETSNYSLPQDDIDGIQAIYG
pIC50: −log10 of the molar value.
Recorded Endpoint: pIC50

Worked examples follow.
> print(dat)
                                   molecule  result
1  O=C(O)[C@@H](Cc1ccccc1)NS(=O)(=O)c1ccc(-n2nnc(-c3ccc4ccccc4c3)n2)cc1 [Compound C-1]  < 5.00
2  O=C(O)CNS(=O)(=O)c1ccc(C#Cc2ccc3ccccc3c2)s1 [Compound B-9]  < 5.00
3  O=C(O)[C@H](Cc1c[nH]c2ccccc12)NS(=O)(=O)c1ccc(C#Cc2ccc3ccccc3c2)cc1 [Compound A-15]  < 5.00

What pIC50 value was documented for this molecule, O=C(O)[C@H](Cc1ccccc1)NS(=O)(=O)c1ccc(C#Cc2ccc3ccccc3c2)s1 [Compound B-2] ?
< 5.00

What pIC50 value was documented for this molecule, O=C(O)[C@H](Cc1ccccc1)NS(=O)(=O)c1ccc(-n2nnc(-c3ccc4ccccc4c3)n2)cc1 [Compound C-2] ?
< 5.00

What pIC50 value was documented for this molecule, O=C(O)[C@@H](Cc1ccccc1)NS(=O)(=O)c1ccc(C#Cc2ccc3ccccc3c2)cc1 [Compound A-2] ?
< 5.00

What pIC50 value was documented for this molecule, O=C(O)[C@@H](Cc1c[nH]c2ccccc12)NS(=O)(=O)c1ccc(C#Cc2ccc3ccccc3c2)s1 [Compound B-3] ?
5.85

What pIC50 value was documented for this molecule, O=C(O)[C@H](NS(=O)(=O)c1ccc(C#Cc2ccc3ccccc3c2)s1)c1ccc(O)cc1 [Compound B-8] ?
5.58

What pIC50 value was documented for this molecule, O=C(O)C[C@@H](NS(=O)(=O)c1ccc(C#Cc2ccc3ccccc3c2)s1)C(=O)O [Compound B-12] ?
5.59

What pIC50 value was documented for this molecule, CC(C)C[C@@H](NS(=O)(=O)c1ccc(C#Cc2ccc3ccccc3c2)cc1)C(=O)O [Compound A-10] ?
5.36

What pIC50 value was documented for this molecule, O=C(O)[C@H](Cc1ccccc1)NS(=O)(=O)c1ccc(C#Cc2ccc3ccccc3c2)cc1 [Compound A-3] ?
< 5.00

What pIC50 value was documented for this molecule, O=C(Nc1ccc(S(=O)(=O)N[C@@H](Cc2ccccc2)C(=O)O)cc1)c1ccc2ccccc2c1 [Compound D-2] ?
5.35

What pIC50 value was documented for this molecule, O=C(O)[C@@H](Cc1ccccc1)NS(=O)(=O)c1ccc(C#Cc2ccc3ccccc3c2)s1 [Compound B-1] ?
< 5.00

What pIC50 value was documented for this molecule, O=C(O)CNS(=O)(=O)c1ccc(C#Cc2ccc3ccccc3c2)cc1 [Compound A-9] ?
< 5.00
